Source of measurements: the RNAGym collection of RNA variant scans (doi:10.1073/pnas.2313332121)

B1: TPR t1 (parent)
chain: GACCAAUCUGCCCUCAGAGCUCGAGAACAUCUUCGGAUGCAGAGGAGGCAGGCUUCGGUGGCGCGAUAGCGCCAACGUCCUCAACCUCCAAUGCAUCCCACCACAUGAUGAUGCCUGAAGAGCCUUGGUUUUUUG

- Variants of: B1
- experiment.notes: polymerase ribozyme fitness, log enrichment relative to wild type (log ratio); higher = more active; in vitro selection for triplet polymerase activity
measured.parameter: polymerase ribozyme fitness (log ratio)

entry.sequence	polymerase ribozyme fitness (log ratio)
GACCAAUCUGCCCUCAGAGCUUGAGAACAUCUUCGGAUGCCGAGGAGGCAGGCUUCGGUAGCGCGAUAGCGCCAACGUCCUCAACCUCCAAUGCAUCCUACCACAUGAUAAUGCCUGAAGAGCCUUGGGUUUUUG	-6.8
GACCGAUCUGCCCUCAGAGCUCGAGAACAUCUUCGGAUGCAGAGGAGGCAGGCUUCGGUGGCGCGAUAGCGCCAACGUCCUUAACCUCCAAUGCAUCCCACCACAUGAUGAUGCCUGAAGAGCCUUGGUUUUUUG	-0.0686
GACCAAGCUGCCCUCAGAGCUCGAGAACAUCUUCGGAUGCAGAGGAGGCAGGCUUCGGUGGCGCGAUAGCGCCAACGUCCUCAACCUCCAAUGCAUCCCACCACCUGAUGAUGCCUGAAUAGCCUUGGUUUUUUG	-0.828
GACCAAUCUGCCCUCAGAGCUCGAGAACAUCUUCGGAUGCAGAGGAGGCAGGCUUCGGUGGCGCGAUAGCGCCAACGUCCUCAACCUACAAAGCAUCCCACCACAUGAUGAUACCUGAAGAGCCUUGGUUUUUUG	-3.73
GACCAAUCUGCCCUCAGAGCUCGAGAACAUCUUCGGAUGCAGAGGAGGCAGGGUUCGGUGGCGCGAUAGCGCCAACGCCCUUAACCUCCAAUGCAUCCCACCACAUGAUGAUGCCUGAAAAGCCUUGGUUUUUUG	0.0778

Recorded result, GACCAAUCUGCCCUGAGAGCUCGACAACAUCUUCGGAUGCUGAGGAGGCAGGCUUCGGUGGCGCGAUAGCGCCAACGUCCUCAACCUCCAAUGCAUCCCACCACAUGAAGAUGCCUGAAGAGCCUUGGUUUUUUG , polymerase ribozyme fitness (log ratio): -5.74

Recorded result, GACCAAUCUGCCCUCAGAGCUCGAGAACAUCUUCGGAUGCAGAGGAGGCAGUCUUCGGUGGCGCGAUAGCGCCAACGUCCUCAACCUCCAAUGCGUCCCACCACAUGAUGAUGCCUGAAGAGCCUUGGUUUUUUG , polymerase ribozyme fitness (log ratio): -0.694

Recorded result, GACCAAUCUGCCCUCAGAGCUCGAGAACAUCUUCGGAUGCCGAGGAGGCAGACUUCGGUGGCGCGAUAGCGCCAACGUCCUGAACCUCCAAUGCAUUCCAGCACAUGAUGAUGCCUGUAGUGCCUUGGUUUUUUG , polymerase ribozyme fitness (log ratio): -2.61

Recorded result, GACCAAUCUGCACUCAGAGCUCGAGAACAUCUUCGGAUGCAGAGGAGGCAGGCUUCGGUGGCUCGAUAGGGCCAACGUCCUCAACCUCAUAUGCAUCCCUCCACAUGAUGAUGCCUGAAGGGCCUUGGUUUUUUG , polymerase ribozyme fitness (log ratio): -1.48

Recorded result, GACCAAUCUGCCCUCAGAGCUCGAGAACAUCUUCGGAUGCAGAGGAGGCAGGCUUCGGUGGCGCGAUAGCGCAAACGUCCUCAACCUCCAAUGCAUCACACCACAUGAUGAUGCCUGAAGAGCCUUGGUUUUUUG , polymerase ribozyme fitness (log ratio): -4.94

Recorded result, GACCAAUCUGCCCUCAGAGCUCGAGAACAUCUUCGGAUGCAGAGGACGCAGGCUUCGGUGGCGCGAUAGCGCCAACGUCCUCAACCUCCAAUGCGUCCCACCACAUGAUGAUGCCUGAAGAGCCUUGGUUUUAUG , polymerase ribozyme fitness (log ratio): -2.16
